Cited source: patent US12180193B2

tested system: BRAF V600E (Homo sapiens, UniProt P15056, V600E)
Construct: expressed in transfected cells
Sequence (P15056 whole entry V600E): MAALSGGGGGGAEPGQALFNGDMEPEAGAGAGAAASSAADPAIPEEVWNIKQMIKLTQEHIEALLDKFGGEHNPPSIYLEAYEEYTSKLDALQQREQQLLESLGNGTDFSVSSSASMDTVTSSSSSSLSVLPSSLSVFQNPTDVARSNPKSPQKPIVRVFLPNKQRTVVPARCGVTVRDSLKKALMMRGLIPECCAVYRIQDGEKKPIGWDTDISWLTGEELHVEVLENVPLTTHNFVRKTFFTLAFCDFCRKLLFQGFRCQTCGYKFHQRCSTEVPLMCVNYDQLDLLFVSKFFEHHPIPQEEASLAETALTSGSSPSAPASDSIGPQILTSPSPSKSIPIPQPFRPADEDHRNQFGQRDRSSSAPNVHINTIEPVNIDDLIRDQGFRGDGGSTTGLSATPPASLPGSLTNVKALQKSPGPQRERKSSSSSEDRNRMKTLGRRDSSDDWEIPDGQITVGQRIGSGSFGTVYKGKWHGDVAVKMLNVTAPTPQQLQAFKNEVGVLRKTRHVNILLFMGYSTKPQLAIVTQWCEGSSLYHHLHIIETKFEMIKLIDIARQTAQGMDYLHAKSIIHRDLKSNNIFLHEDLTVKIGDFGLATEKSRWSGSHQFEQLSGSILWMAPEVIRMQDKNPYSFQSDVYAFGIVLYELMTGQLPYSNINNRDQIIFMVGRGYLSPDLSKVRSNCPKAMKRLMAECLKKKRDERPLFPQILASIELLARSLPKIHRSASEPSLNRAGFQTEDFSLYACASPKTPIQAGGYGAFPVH
test name: Cellular assay of target protein degradation, T-Rex 293 cells stably transfected with HA-BRAF_V600E (HA immunofluorescence, high content imaging)
Type: cell-based
condition summary: half maximal degradation, T-Rex 293 HA-BRAF V600E; read-out: BRaf V600E DC50
The following molecules are listed with their measured DC50 values.

molecule	tested system	DC50
O=C1CC[C@H](N2Cc3cc(N4CCC(CN5CCN(C6(c7ncc(-c8cnc9[nH]cc(C(=O)c%10c(F)ccc(NS(=O)(=O)N%11CC[C@@H](F)C%11)c%10F)c9c8)cn7)CC6)CC5)CC4)ccc3C2=O)C(=O)N1	BRAF V600E (Homo sapiens, UniProt P15056, V600E)	5 to 50 nM
CCc1ccc(NS(=O)(=O)N2CC[C@@H](F)C2)c(F)c1C(=O)c1c[nH]c2ncc(-c3ccc(N4CCC(CN5CCC(c6ccc7c(c6)CN(C6CCC(=O)NC6=O)C7=O)CC5)CC4)cc3)cc12 (some centres unmarked)	BRAF V600E (Homo sapiens, UniProt P15056, V600E)	> 500 nM
O=C1CCC(N2Cc3cc(OCCCCN4CCN(c5ccc(-c6cnc7[nH]cc(C(=O)c8c(F)ccc(NS(=O)(=O)N9CC[C@@H](F)C9)c8F)c7c6)cn5)CC4)ccc3C2=O)C(=O)N1 (some centres unmarked)	BRAF V600E (Homo sapiens, UniProt P15056, V600E)	5 to 50 nM
C[C@@H]1C[C@H](CN2CCC(c3ccc4c(c3)CN([C@H]3CCC(=O)NC3=O)C4=O)CC2)CCN1c1ccc(-c2cnc3[nH]cc(C(=O)c4c(F)ccc(NS(=O)(=O)N5CC[C@@H](F)C5)c4F)c3c2)cc1	BRAF V600E (Homo sapiens, UniProt P15056, V600E)	5 to 50 nM

Proceed to the following item.
Entry "CCc1c(NS(=O)(=O)N2CC[C@@H](F)C2)ccc(F)c1C(=O)c1c[nH]c2ncc(-c3ccc(N4CCC(CN5CCC(c6ccc7c(c6)CN([C@H]6CCC(=O)NC6=O)C7=O)CC5)CC4)cc3)cc12" ; DC50 = < 5 nM
